- Test system: Collinsella aerofaciens
- protocol: growth AUC relative to DMSO control (median of replicates) (fraction); higher = more growth (less inhibition), active = hit call of the paper
- condition notes: 20 µM; 24 h
Here the recorded growth AUC is given for each entry.
Returns: the value as a bare number; no unit string appended.

Query: Return growth AUC for the following compound: CCOC(=O)C1CC(=O)C(=C(O)C2CC2)C(=O)C1 (stereo unspecified)
Reply: 0.986

Query: Look up and state reported growth AUC for CCOC(=O)[C@@H](C)Oc1ccc(Oc2cnc3cc(Cl)ccc3n2)cc1
Reply: 1.01

Query: Answer with the recorded growth AUC of COC(=O)c1c(Cl)ccc(Cl)c1OC only.
Reply: 1.04

Query: Kindly indicate its recorded growth AUC. Item: COCC(=O)N(c1c(C)cccc1C(=O)O)C(C)C(=O)O (stereo unspecified)
Reply: 1

Query: Consider the compound COC(=O)c1ccc(CNS(C)(=O)=O)cc1S(=O)(=O)NC(=O)Nc1nc(OC)cc(OC)n1 and give its recorded growth AUC.
Reply: 1.01

----------
- Test system: Lactobacillus gasseri
- protocol: growth AUC relative to DMSO control (median of replicates) (fraction); higher = more growth (less inhibition), active = hit call of the paper;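 active = AUC reduced over 20% with Padj below 0.05 in at least 2 of 3 replicates; inactive = otherwise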
- condition notes: 20 µM; 24 h
Respond using exactly one of the listed classes: active, inactive

Known results for compounds:
- structure: "COC(=O)c1ccc(I)cc1S(=O)(=O)[N-]C(=O)Nc1nc(C)nc(OC)n1.[Na+]"
  qualitative label: "inactive"
- structure: "COc1cc(OC)nc(NC(=O)NS(=O)(=O)Nc2ccccc2C(=O)N(C)C)n1"
  qualitative label: "inactive"
- structure: "CCCOC(=O)c1ccc(C(=O)OCCC)nc1"
  qualitative label: "inactive"
- structure: "Br[C@@H]1CC[C@H](Br)[C@H](Br)CC[C@@H](Br)[C@@H](Br)CC[C@H]1Br"
  qualitative label: "inactive"

Query: Outcome? O.O=C(Nc1ccc(Cl)c(Cl)c1)Nc1cc(Cl)ccc1Oc1ccc(Cl)cc1S(=O)(=O)[O-].[Na+]
Reply: active

----------
- Test system: Parabacteroides merdae
- protocol: growth AUC relative to DMSO control (median of replicates) (fraction); higher = more growth (less inhibition), active = hit call of the paper
- condition notes: 20 µM; 24 h
measured endpoint: growth AUC
Simply state the number, no unit and no words.

- compound: "O=C(O)COc1ccc(Cl)c2cccnc12"
  growth AUC: 1
- compound: "O=[N+]([O-])c1ccc(O)cc1"
  growth AUC: 0.99
- compound: "Cc1nn(C)c(Oc2ccccc2)c1/C=N/OCc1ccc(C(=O)OC(C)(C)C)cc1"
  growth AUC: 0.925

Query: State recorded growth AUC with Parabacteroides merdae, entry COC(=O)C(C)Oc1ccc(Cl)cc1C (stereo unspecified) , no comment.
Reply: 1.05

Query: Jot down growth AUC (Parabacteroides merdae) of COCC(=O)N(c1c(C)cccc1C)C(C)C(=O)O (stereo unspecified) .
Reply: 1.05

Query: Determine reported growth AUC for c1ccc2c(c1)-c1cccc3c1c-2cc1ccccc13 ; test system: Parabacteroides merdae.
Reply: 1.05

----------
- System: Lactobacillus paracasei
- protocol: growth AUC relative to DMSO control (median of replicates) (fraction); higher = more growth (less inhibition), active = hit call of the paper
- condition notes: 20 µM; 24 h
measured endpoint: growth AUC
Could you keep your reply to the number by itself?

Below, 4 compounds whose answers are already recorded.
- compound: "CCCCC(CC)COC(=O)COc1ccc(Cl)cc1C (stereo unspecified)"
  assay value: 0.962
- compound: "CN(C)C=O"
  assay value: 1.03
- compound: "[S]"
  assay value: 1.01
- compound: "CC(C)(NC(=O)NCc1ccccc1Cl)c1ccccc1"
  assay value: 0.986

From here, focus on the item given below.
Query: Report growth AUC, nothing else, for this compound: CCCCCCCC(=O)Oc1c(Br)cc(C#N)cc1Br
Reply: 0.863
